Method description: first-order primary biodegradation rate constant k (sorption-corrected, fDis-corrected) (d-1); higher = faster biodegradation
Experimental parameters: river segment: Spain (ES) F_Pris_Salt; incubation temperature 24 °C
Assign first-order primary biodegradation rate constant k to each entry below.
Answer using only a numeral; do not append any unit.

Looking up "Nc1nc(NC2CC2)c2ncn([C@H]3C=C[C@@H](CO)C3)c2n1" , I see its first-order primary biodegradation rate constant k listed as 0.449

Note to self: first-order primary biodegradation rate constant k recorded for "Cc1cc(O)cc(C)c1Cl" was 0.228

# first-order primary biodegradation rate constant k of "CC(C)N(C(=O)CCl)c1ccccc1" = 0.212

// sample "COc1ccc2cc([C@H](C)C(=O)O)ccc2c1" , its first-order primary biodegradation rate constant k was 0.076

// first-order primary biodegradation rate constant k value for "COC(=O)c1ccc(O)cc1" : 4.7

Form: molecule = O=S(=O)(O)NC1CCCCC1 [Cyclamate] ; first-order primary biodegradation rate constant k = 0.0914

// recorded first-order primary biodegradation rate constant k for CC(C)NCC(O)c1ccc(NS(C)(=O)=O)cc1 (stereo unspecified) : 0.0178

# first-order primary biodegradation rate constant k of "NCC1(CC(=O)O)CCCCC1" = 0.119

The molecule listed as "CNC(=C[N+](=O)[O-])NCCSCc1ccc(CN(C)C)o1" has a reported first-order primary biodegradation rate constant k of 0.103

Sure, the documented first-order primary biodegradation rate constant k for "CC1(C)C[C@@H]1C(=O)N/C(=C\CCCCSC[C@H](N)C(=O)O)C(=O)O" is 8.78

Value of measured first-order primary biodegradation rate constant k for the entry "Cc1cccc(Nc2ccccc2C(=O)O)c1C" : 0.804

What the record says about "O=[N+]([O-])c1ccc(Cc2ccncc2)cc1" : first-order primary biodegradation rate constant k is 0.146

For reference, reported first-order primary biodegradation rate constant k for "CCCCC(=O)N(Cc1ccc(-c2ccccc2-c2nnn[nH]2)cc1)[C@H](C(=O)O)C(C)C" stands at 0.0324

The recorded first-order primary biodegradation rate constant k for entry "Nc1ccc(S(=O)(=O)Nc2nccs2)cc1" equals 0.0294

Lookup result for CN(Cc1cnc2nc(N)nc(N)c2n1)c1ccc(C(=O)N[C@@H](CCC(=O)O)C(=O)O)cc1 [Methotrexate] ; measured first-order primary biodegradation rate constant k: 6.23

// field: first-order primary biodegradation rate constant k; key: "Cc1ccc(-c2nc3ccc(C)cn3c2CC(=O)N(C)C)cc1" ; value = 0.00549

Looking up "Cc1ccc(S(=O)(=O)O)cc1" , I found its first-order primary biodegradation rate constant k recorded as 0.0548

The value of first-order primary biodegradation rate constant k measured for the molecule CC(C)NCC(O)COc1ccc(CC(N)=O)cc1 (stereo unspecified) turned out to be 0.0637

// first-order primary biodegradation rate constant k value for "Cn1c(=O)c2c(ncn2C)n(C)c1=O" : 0.215

// sample "O=C(O)Cc1ccccc1Nc1c(Cl)cccc1Cl" , its first-order primary biodegradation rate constant k was 0.0381

The recorded first-order primary biodegradation rate constant k for "COc1c(Cl)ccc(Cl)c1C(=O)O" is 0.107
